# Subject Of Test: T1, His-tagged CEACAM1 (human, UniProt P13688 35-428)
# T1 construct: 45 kDa SPR analyte; also called CEACAM1-HIS; CEACAM1 analyte
# T1 sequence: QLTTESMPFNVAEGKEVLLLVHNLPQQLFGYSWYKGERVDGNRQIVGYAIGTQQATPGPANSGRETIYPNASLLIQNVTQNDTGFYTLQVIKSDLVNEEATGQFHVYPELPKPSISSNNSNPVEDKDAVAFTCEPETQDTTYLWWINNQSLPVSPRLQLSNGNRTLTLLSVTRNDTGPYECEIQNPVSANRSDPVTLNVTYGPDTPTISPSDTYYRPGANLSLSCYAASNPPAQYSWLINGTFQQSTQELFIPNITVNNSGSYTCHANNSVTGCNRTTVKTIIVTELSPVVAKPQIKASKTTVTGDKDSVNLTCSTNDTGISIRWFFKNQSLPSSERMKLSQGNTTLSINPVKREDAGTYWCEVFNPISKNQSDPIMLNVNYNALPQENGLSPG
# Test Name: SPR single-cycle, supernatant IgG captured
Value Type: koff (s⁻¹)
Kindly provide the numeric value in s⁻¹ only, without the unit symbol.

Binder	Numeric Result
VH1/CP09F05 (antibody, IgG4, V domains shown, IgG4 (S241P), kappa) VH: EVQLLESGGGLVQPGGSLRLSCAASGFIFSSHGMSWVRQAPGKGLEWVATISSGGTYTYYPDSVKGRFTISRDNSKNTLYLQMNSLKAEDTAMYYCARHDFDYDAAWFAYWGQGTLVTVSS VL: EIVLTQSPATLSLSPGERATLSCRANSAVSYMYWYQQKPGQAPRPWIYLTSNRATGVPARFSGSGSGTDYTLTISSLEPEDFAVYYCQQNTALPFTFGQGTKLEIK	0.055

Next, consider the following binder.
Request: Supply measured koff of VH1/CP08G02 (antibody, IgG4, V domains shown, IgG4 (S241P), kappa) VH: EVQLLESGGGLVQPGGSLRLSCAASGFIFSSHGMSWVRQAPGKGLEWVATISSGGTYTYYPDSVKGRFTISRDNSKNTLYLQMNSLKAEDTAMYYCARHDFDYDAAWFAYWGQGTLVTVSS VL: EIVLTQSPATLSLSPGERATLSCRANSAVSYMYWYQQKPGQAPRPWIYLTSNRATGVPARFSGSGSGTDYTLTISSLEPEDFAVYYCQQWTNNPPTFGQGTKLEIK in your reply.
Result: 0.052
